This collection of values is drawn from paper PMC6016464.

Listed here are binders together with their documented koff.
Molecular target: T1, A1 protein (mouse, residues 1-152, P104K C113S, used as wild type) (mouse)
T1 sequence (Q07440 1-152 with P104K C113S, looked up): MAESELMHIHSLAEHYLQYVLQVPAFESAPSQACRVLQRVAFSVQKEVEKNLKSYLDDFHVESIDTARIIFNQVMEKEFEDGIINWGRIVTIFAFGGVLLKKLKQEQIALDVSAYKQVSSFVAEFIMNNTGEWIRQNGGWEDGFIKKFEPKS
Assay: fluorescence dissociation kinetics with competitor; dissociation; preformed complex of TAMRA-labelled peptide and partner protein mixed with excess unlabeled PUMA peptide as competitor; stopped-flow or Cary Eclipse spectrophotometer; 25 °C; 50 mM sodium phosphate, 0.05% (v/v) Tween 20, pH …
Where no end group is shown, it is not given here. The star is where a group is joined. TAMRA = 5-carboxytetramethylrhodamine, CN(C)c1ccc2c(-c3ccc(C(=O)*)cc3C(=O)[O-])c3ccc(=[N+](C)C)cc-3oc2c1
Write down the numeric answer in s⁻¹ and omit the unit.

Take a look at these entries with their results.
binder="{TAMRA}-SESQEEIIHNIARHLAQIGDEMDHNAQPTLVRQLA (peptide, UniProt P70444 76-110, looked up, BID, mouse, residues 76-110, UniProt P70444; source: synthetic peptide (Biomatik)) [BID I101A peptide, TAMRA-labelled]" measurement_type=koff unit_of_measure=s⁻¹ observed=0.0002
binder="{TAMRA}-SESQEAIIHNIARHLAQIGDEMDHNIQPTLVRQLA (peptide, UniProt P70444 76-110, looked up, BID, mouse, residues 76-110, UniProt P70444; source: synthetic peptide (Biomatik)) [BID E81A peptide, TAMRA-labelled]" measurement_type=koff unit_of_measure=s⁻¹ observed=0.000213
binder="{TAMRA}-SESQEGIIHNIARHLAQIGDEMDHNIQPTLVRQLA (peptide, UniProt P70444 76-110, looked up, BID, mouse, residues 76-110, UniProt P70444; source: synthetic peptide (Biomatik)) [BID E81G peptide, TAMRA-labelled]" measurement_type=koff unit_of_measure=s⁻¹ observed=0.000454

// koff value for {TAMRA}-SESQEEIAHNIARHLAQIGDEMDHNIQPTLVRQLA (peptide, UniProt P70444 76-110, looked up, BID, mouse, residues 76-110, UniProt P70444; source: synthetic peptide (Biomatik)) [BID I83A peptide, TAMRA-labelled] : 0.002
